Recorded measurements of Lipogenesis in rat adipocytes [Potency (%)] Mean Value, one per entry
Molecular target: insulin receptor of isolated rat adipocytes (rat, UniProt P15127 27-1383)
Sequence (P15127 27-1383): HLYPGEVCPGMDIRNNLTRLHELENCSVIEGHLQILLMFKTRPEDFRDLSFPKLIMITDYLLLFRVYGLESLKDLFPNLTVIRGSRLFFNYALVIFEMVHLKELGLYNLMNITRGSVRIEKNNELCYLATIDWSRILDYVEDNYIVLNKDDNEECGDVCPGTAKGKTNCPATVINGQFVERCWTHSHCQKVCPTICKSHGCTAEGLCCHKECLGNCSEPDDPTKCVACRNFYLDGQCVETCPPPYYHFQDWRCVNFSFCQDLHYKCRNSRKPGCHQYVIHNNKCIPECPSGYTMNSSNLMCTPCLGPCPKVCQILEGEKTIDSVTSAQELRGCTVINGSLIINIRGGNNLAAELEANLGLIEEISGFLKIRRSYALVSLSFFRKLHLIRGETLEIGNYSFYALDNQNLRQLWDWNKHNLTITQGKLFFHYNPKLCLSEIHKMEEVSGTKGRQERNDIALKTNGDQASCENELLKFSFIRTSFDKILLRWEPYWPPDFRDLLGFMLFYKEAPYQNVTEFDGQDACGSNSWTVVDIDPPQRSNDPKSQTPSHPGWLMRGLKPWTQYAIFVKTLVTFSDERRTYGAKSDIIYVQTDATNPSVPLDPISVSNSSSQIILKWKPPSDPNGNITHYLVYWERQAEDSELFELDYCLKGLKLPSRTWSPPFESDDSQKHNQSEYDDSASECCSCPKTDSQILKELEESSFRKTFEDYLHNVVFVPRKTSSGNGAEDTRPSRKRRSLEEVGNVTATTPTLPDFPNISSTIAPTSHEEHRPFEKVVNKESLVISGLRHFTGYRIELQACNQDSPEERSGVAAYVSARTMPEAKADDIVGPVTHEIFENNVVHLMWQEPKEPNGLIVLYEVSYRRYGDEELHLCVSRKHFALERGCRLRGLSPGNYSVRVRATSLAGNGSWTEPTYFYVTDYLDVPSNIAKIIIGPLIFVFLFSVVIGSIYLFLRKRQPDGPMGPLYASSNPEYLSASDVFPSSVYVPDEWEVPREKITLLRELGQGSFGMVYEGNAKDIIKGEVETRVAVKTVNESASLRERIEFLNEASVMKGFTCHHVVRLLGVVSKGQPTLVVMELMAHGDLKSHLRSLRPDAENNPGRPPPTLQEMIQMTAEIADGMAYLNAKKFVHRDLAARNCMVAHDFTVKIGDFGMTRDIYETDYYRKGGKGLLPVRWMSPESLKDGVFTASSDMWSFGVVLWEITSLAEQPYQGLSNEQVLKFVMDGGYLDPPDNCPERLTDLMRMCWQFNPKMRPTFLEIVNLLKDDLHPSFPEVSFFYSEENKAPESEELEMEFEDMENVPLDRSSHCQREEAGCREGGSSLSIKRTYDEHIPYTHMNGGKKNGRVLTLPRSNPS
Assay: cell-based or functional assay

[
  {
    "binder": "(A14E, A21G, A22(GQAP)18, A94G, A95Q, A96A, A97K^, A98P, B29R, desB30 human insulin)/(227A, 234A, 235K, 297E, 315Q, 384Q, des447 hIgG4-Fc(228-447)) … (other, Cys229 (EU numbering) sulphur bound to an acetyl arm of the linker; A97K N(eps) acylated by the trivalent linker 4-[bis[2-[(2-acetyl)amino]ethyl]amino]-4-oxo-butanoyl, also called Ex 5.26) chain 1: GIVEQCCTSICSLEQLENYCGGQAPGQAPGQAPGQAPGQAPGQAPGQAPGQAPGQAPGQAPGQAPGQAPGQAPGQAPGQAPGQAPGQAPGQAPGQAKP chain 2: FVNQHLCGSHLVEALYLVCGERGFFYTPR chain 3: ASCPAPEAKGGPSVFLFPPKPKDTLMISRTPEVTCVVVDVSQEDPEVQFNWYVDGVEVHNAKTKPREEQFESTYRVVSVLTVLHQDWLQGKEYKCKVSNKGLPSSIEKTISKAKGQPREPQVYTLPPSQEEMTKNQVSLTCLVKGFYPSDIAVEWESQGQPENNYKTTPPVLDSDGSFFLYSRLTVDKSRWQEGNVFSCSVMHEALHNHYTQKSLSLSLG",
    "measurement": "3.23 % of human insulin"
  }
]

Alright, here's another binder for you.
Query: Name the reported Lipogenesis in rat adipocytes [Potency (%)] Mean Value value associated with the binder A14E, A21G, A22(GQAPGQAPGQEP)6-GQAP, A98K^, A99P, B3Q, B25H, B29R, desB30 human insulin/(227A, 234A, 235K hIgG4-Fc(228-447)) … (other, Cys229 (EU numbering) sulphur bound to an acetyl arm of the linker; A98K N(eps) acylated by the trivalent linker 4-[bis[2-[(2-acetyl)amino]ethyl]amino]-4-oxo-butanoyl, also called Ex 5.5) chain 1: GIVEQCCTSICSLEQLENYCGGQAPGQAPGQEPGQAPGQAPGQEPGQAPGQAPGQEPGQAPGQAPGQEPGQAPGQAPGQEPGQAPGQAPGQEPGQAPKP chain 2: FVQQHLCGSHLVEALYLVCGERGFHYTPR chain 3: ASCPAPEAKGGPSVFLFPPKPKDTLMISRTPEVTCVVVDVSQEDPEVQFNWYVDGVEVHNAKTKPREEQFNSTYRVVSVLTVLHQDWLNGKEYKCKVSNKGLPSSIEKTISKAKGQPREPQVYTLPPSQEEMTKNQVSLTCLVKGFYPSDIAVEWESNGQPENNYKTTPPVLDSDGSFFLYSRLTVDKSRWQEGNVFSCSVMHEALHNHYTQKSLSLSLGK
Response: 2.21 % of human insulin
